Molecular target: yeast α-glucosidase (Saccharomyces cerevisiae, UniProt P53341)
Construct: purchased Sigma Aldrich
Sequence (P53341 whole entry): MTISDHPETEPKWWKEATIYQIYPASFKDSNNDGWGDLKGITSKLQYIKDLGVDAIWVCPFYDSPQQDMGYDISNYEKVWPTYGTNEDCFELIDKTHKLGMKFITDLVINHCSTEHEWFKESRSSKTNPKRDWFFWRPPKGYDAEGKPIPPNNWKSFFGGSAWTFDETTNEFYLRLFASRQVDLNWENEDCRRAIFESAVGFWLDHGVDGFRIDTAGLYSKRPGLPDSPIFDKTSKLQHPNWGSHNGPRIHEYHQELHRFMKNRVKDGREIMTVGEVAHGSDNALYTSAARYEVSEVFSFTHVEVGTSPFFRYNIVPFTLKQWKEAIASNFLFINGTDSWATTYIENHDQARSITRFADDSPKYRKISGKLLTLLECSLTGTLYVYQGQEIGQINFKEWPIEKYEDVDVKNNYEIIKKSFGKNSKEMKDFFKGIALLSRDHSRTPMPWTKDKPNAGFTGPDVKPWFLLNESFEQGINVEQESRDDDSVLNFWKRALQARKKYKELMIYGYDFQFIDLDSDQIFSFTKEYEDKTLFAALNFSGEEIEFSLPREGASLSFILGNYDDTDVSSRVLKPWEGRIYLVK
Assay: biochemical
pIC50: −log10 of the molar value.
Note to self: values exactly at 5 are class 1. So pIC50 at or above 5 is class 1, below is class 0.

smiles.input	tested.system	label.value
COc1ccc2cc3[n+](cc2c1OC(=O)c1ccccc1C(F)(F)F)CCc1cc2c(cc1-3)OCO2	yeast α-glucosidase (Saccharomyces cerevisiae, UniProt P53341)	class 0
COc1ccc2cc3[n+](cc2c1OC(=O)c1c(Cl)cccc1Cl)CCc1cc2c(cc1-3)OCO2	yeast α-glucosidase (Saccharomyces cerevisiae, UniProt P53341)	class 1
COc1ccc2cc3[n+](cc2c1OC(=O)c1cc(C(C)(C)C)cc(C(C)(C)C)c1)CCc1cc2c(cc1-3)OCO2.[Cl-]	yeast α-glucosidase (Saccharomyces cerevisiae, UniProt P53341)	class 1
COc1ccc2cc3[n+](cc2c1OC(=O)c1ccc(C#N)cc1)CCc1cc2c(cc1-3)OCO2	yeast α-glucosidase (Saccharomyces cerevisiae, UniProt P53341)	class 0
COc1ccc2cc3[n+](cc2c1OC(=O)c1ccccc1C)CCc1cc2c(cc1-3)OCO2	yeast α-glucosidase (Saccharomyces cerevisiae, UniProt P53341)	class 0
COc1ccc2cc3[n+](cc2c1OC(=O)c1ccccc1)CCc1cc2c(cc1-3)OCO2.[Cl-]	yeast α-glucosidase (Saccharomyces cerevisiae, UniProt P53341)	class 0

---

Test: cytotoxicity study with HEK-293 cells (CellTiter 96 AQueous One)
Format: cell-based
Conditions: human
Procedure: HEK-293 cells (ATCC® CRL-1573™) were maintained in growth medium consisting of DMEM (Gibco®, Langley, OK) supplemented with 10% fetal bovine serum (Gibco®, Langley, OK), 100 I.U./ml penicillin (Bio Basic Canada®, Ontario, CA), 100 μg/ml streptomycin (Bio Basic Canada®, Ontario, CA), and 10 mM HEPES (4-(2-hydroxyethyl)-1-piperazineethanesulfonic acid) (Sigma Aldrich®, St. Louis, MO) at 37 °C under 5% CO2. The cytotoxicity of the active compounds (9, 26, 28 and 33) was tested with HEK-293 cells. […]
The entries below come with measured CC50 at 48 h values attached.

molecule	CC50 at 48 h / µM
COc1ccc2cc3[n+](cc2c1OC(=O)c1cc(C(C)(C)C)cc(C(C)(C)C)c1)CCc1cc2c(cc1-3)OCO2.[Cl-] [Compound 26]	18.2
COc1ccc2cc3[n+](cc2c1OC(=O)c1ccccc1OCc1ccccc1)CCc1cc2c(cc1-3)OCO2.[Cl-] [Compound 9]	30.5
COc1ccc2cc3[n+](cc2c1OC(=O)c1ccc2ccccc2c1)CCc1cc2c(cc1-3)OCO2.[Cl-] [Compound 28]	20.9
COc1ccc2cc3[n+](cc2c1OC(=O)/C=C/C=C/c1ccc2c(c1)OCO2)CCc1cc2c(cc1-3)OCO2.[Cl-] [Compound 33]	17.7

---

Target: yeast α-glucosidase (Saccharomyces cerevisiae, UniProt P53341)
Construct: purchased Sigma Aldrich
Assay: biochemical
Conditions: read-out: Inhibition at 50 μM (%), 50 μM

compound	tested.system	value.prefix	inhibition at 50 µM, %
COc1ccc2cc3[n+](cc2c1OC)CCc1cc2c(cc1-3)OCO2 [BBR, Berberine, reference compound]	yeast α-glucosidase (Saccharomyces cerevisiae, UniProt P53341)	<	0
COc1ccc2cc3[n+](cc2c1OC(=O)c1ccccc1Br)CCc1cc2c(cc1-3)OCO2 [Compound 16]	yeast α-glucosidase (Saccharomyces cerevisiae, UniProt P53341)	=	95.3
COc1ccc2cc3[n+](cc2c1OC(=O)c1cccc(Cl)c1)CCc1cc2c(cc1-3)OCO2 [Compound 11]	yeast α-glucosidase (Saccharomyces cerevisiae, UniProt P53341)	=	95.5
COc1ccc2cc3[n+](cc2c1OC(=O)c1c(Cl)cccc1Cl)CCc1cc2c(cc1-3)OCO2 [Compound 21]	yeast α-glucosidase (Saccharomyces cerevisiae, UniProt P53341)	=	96.6
COc1cc(C(=O)Oc2c(OC)ccc3cc4[n+](cc23)CCc2cc3c(cc2-4)OCO3)cc(OC)c1OC [Compound 8]	yeast α-glucosidase (Saccharomyces cerevisiae, UniProt P53341)	=	72
COc1ccc2cc3[n+](cc2c1OC(=O)c1cccc2ccccc12)CCc1cc2c(cc1-3)OCO2 [Compound 27]	yeast α-glucosidase (Saccharomyces cerevisiae, UniProt P53341)	=	99.8
COc1ccc2cc3[n+](cc2c1OC(=O)c1cccc(F)c1)CCc1cc2c(cc1-3)OCO2 [Compound 14]	yeast α-glucosidase (Saccharomyces cerevisiae, UniProt P53341)	=	63
COc1ccc2cc3[n+](cc2c1OC(=O)c1ccc2ccccc2c1)CCc1cc2c(cc1-3)OCO2.[Cl-] [Compound 28]	yeast α-glucosidase (Saccharomyces cerevisiae, UniProt P53341)	=	95.7

---

Biological target: yeast α-glucosidase (Saccharomyces cerevisiae)
Construct: purchased Sigma Aldrich
Test: biochemical
Conditions: read-out: Inhibition at 50 μM (%), 50 μM
Each record here notes measured inhibition at 50 µM.
observed.property: inhibition at 50 µM (%)

smiles.input	tested.system	unit	assay.value
COc1ccc2cc3[n+](cc2c1OC(=O)/C=C/C=C/c1ccc2c(c1)OCO2)CCc1cc2c(cc1-3)OCO2.[Cl-]	yeast α-glucosidase (Saccharomyces cerevisiae)	%	98.7
COc1ccc(C(=O)Oc2c(OC)ccc3cc4[n+](cc23)CCc2cc3c(cc2-4)OCO3)cc1OC	yeast α-glucosidase (Saccharomyces cerevisiae)	%	73.9
COc1ccc2cc3[n+](cc2c1OC(=O)c1ccccc1Cl)CCc1cc2c(cc1-3)OCO2	yeast α-glucosidase (Saccharomyces cerevisiae)	%	88.5
COc1ccc2cc3[n+](cc2c1OC(=O)c1ccc(C(C)(C)C)cc1)CCc1cc2c(cc1-3)OCO2	yeast α-glucosidase (Saccharomyces cerevisiae)	%	98.9
